The origin of these recorded values is ChEMBL document CHEMBL3739401.

PROTOCOL: Cytotoxicity against human MIAPaCa2 cells by MTT assay
Assay type: functional, cell-based
MEASUREMENT SETUP: MIA PaCa-2
# pIC50 annotations
As a rule, pIC50 stands for the negative log10 of the concentration, concentration in M.

COMPOUND: C=C(C[N+]1(C)CCN(c2ccc(/C=C/C(=O)/C=C(O)/C=C/c3ccc(N4CC[N+](C)(CC(=C)C(=O)OCCCC)CC4)cc3)cc2)CC1)C(=O)OCCCC.[Br-].[Br-]
READOUT VALUE: 5.36
//
COMPOUND: C=C(C[N+]1(C)CCN(c2ccc(/C=C/C(=O)/C=C(O)/C=C/c3ccc(N4CC[N+](C)(CC(=C)C(=O)N(C)C)CC4)cc3)cc2)CC1)C(=O)N(C)C.[Br-].[Br-]
READOUT VALUE: 4.85
//
COMPOUND: COC(=O)/C(=C\c1ccccc1)C[N+]1(C)CCN(c2ccc(/C=C/C(=O)/C=C(O)/C=C/c3ccc(N4CC[N+](C)(C/C(=C/c5ccccc5)C(=O)OC)CC4)cc3)cc2)CC1.[Br-].[Br-]
READOUT VALUE: 5.39
//
COMPOUND: C=C(C[N+]1(C)CCN(c2ccc(/C=C/C(=O)/C=C(O)/C=C/c3ccc(N4CC[N+](C)(CC(=C)C(=O)OCCCCCC)CC4)cc3)cc2)CC1)C(=O)OCCCCCC.[Br-].[Br-]
READOUT VALUE: 5.38

Now examine the next entry.
Request: Need pIC50 of COc1cc(/C=C/C(=O)CC(=O)/C=C/c2ccc(O)c(OC)c2)ccc1O [CURCUMIN] , thanks.
Result: 4.70

---

PROTOCOL: Aqueous solubility of compound
Type: physicochemical
MEASUREMENT SETUP: water
READOUT: solubility

// worked examples, solubility included
TEST SMILES: C=C(C[N+]1(C)CCN(c2ccc(/C=C/C(=O)/C=C(O)/C=C/c3ccc(N4CC[N+](C)(CC(=C)C(=O)OCCCCCC)CC4)cc3)cc2)CC1)C(=O)OCCCCCC.[Br-].[Br-]
solubility: 1000 µg/mL
//
TEST SMILES: C=C(C[N+]1(C)CCN(c2ccc(/C=C/C(=O)/C=C(O)/C=C/c3ccc(N4CC[N+](C)(CC(=C)C(=O)OCCCC)CC4)cc3)cc2)CC1)C(=O)OCCCC.[Br-].[Br-]
solubility: 1000 µg/mL
//
TEST SMILES: C[N+]1(Cc2ccccc2)CCOCC1
solubility: > 100000 µg/mL
//
TEST SMILES: C=C(C[N+]1(C)CCN(c2ccc(/C=C/C(=O)/C=C(O)/C=C/c3ccc(N4CC[N+](C)(CC(=C)C(=O)OC)CC4)cc3)cc2)CC1)C(=O)OC.[Br-].[Br-]
solubility: 1000 µg/mL
//
TEST SMILES: C[N+]1(Cc2ccccc2)CCN(c2ccc(/C=C/C(=O)/C=C(O)/C=C/c3ccc(N4CC[N+](C)(Cc5ccccc5)CC4)cc3)cc2)CC1.[Br-].[Br-]
solubility: 15000 µg/mL

Now examine the next entry.
Request: Need solubility of `C=CC[N+]1(C)CCOCC1` , thanks.
Result: > 100000 µg/mL
